PROTOCOL NOTES: self-splicing fitness, log relative to wild type (ln ratio); higher = more splicing; Tetrahymena group I intron in knt gene, E. coli kanamycin selection, DiMSum; sequences stand for … in CUCUCU…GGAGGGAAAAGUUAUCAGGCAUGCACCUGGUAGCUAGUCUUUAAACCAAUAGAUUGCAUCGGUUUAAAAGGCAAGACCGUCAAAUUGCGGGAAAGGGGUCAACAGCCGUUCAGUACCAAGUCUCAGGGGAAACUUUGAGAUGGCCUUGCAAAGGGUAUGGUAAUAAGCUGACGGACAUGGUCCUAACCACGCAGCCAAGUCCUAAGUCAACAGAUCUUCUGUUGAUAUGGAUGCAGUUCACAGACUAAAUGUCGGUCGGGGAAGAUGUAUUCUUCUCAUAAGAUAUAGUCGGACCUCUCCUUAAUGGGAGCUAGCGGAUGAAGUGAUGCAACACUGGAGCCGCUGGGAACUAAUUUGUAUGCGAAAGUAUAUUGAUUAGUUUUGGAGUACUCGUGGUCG;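 also: selection with 25 µg/mL kanamycin versus none on LB agar overnight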
TEST CONTEXT: 37 °C
Label criterion met when self-splicing fitness (ln) >= -1; otherwise criterion not met.

# count of solved cases: 5
ACCCAGCAAUAUUACGCAUG; criterion not met
CCCAAGCAAUAUUACGUGUG; criterion not met
CUGUAGCAAUAUUACGGGGG; criterion not met
AGCCAGCAAUAUUACGGGGA; criterion met
CCAUAGCAAUAUUACGGGGA; criterion not met

// switching to the query sequence
Lookup: State whether the measured self-splicing fitness (ln) reaches -1, counting equality as reaching it, for CGGAAGCAAUAUUACGCCUG
Found: criterion met

----------
PROTOCOL NOTES: self-splicing fitness, log relative to wild type (ln ratio); higher = more splicing; Tetrahymena group I intron in knt gene, E. coli kanamycin selection, DiMSum; sequences stand for … in CUCUCU…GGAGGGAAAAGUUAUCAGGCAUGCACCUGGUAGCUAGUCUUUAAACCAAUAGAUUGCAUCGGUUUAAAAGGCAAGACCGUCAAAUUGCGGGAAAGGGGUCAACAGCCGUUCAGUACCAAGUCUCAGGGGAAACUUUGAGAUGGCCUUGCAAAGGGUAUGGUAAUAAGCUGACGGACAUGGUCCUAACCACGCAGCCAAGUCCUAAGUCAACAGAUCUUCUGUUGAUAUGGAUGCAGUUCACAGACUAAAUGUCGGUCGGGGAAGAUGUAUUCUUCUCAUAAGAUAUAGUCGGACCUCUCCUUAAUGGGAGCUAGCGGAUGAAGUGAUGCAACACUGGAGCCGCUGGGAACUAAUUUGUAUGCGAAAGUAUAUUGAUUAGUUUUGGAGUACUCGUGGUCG
TEST CONTEXT: 37 °C
QUANTITY MEASURED: self-splicing fitness (ln)
Give bare numbers.

// worked examples, self-splicing fitness (ln) included
GACUAGCAAUAUUACGAGCU; -0.918
UGAUAGCAAUAUUACGAUAA; -0.841
UAACAGCAAUAUUACGACAU; -0.372

Hi! Can you tell me self-splicing fitness (ln) for each of these sequences?
1. UUAAAGCAAUAUUACGCUAU
2. CGGGAGCAAUAUUACGUUCA
3. CCUCAGCAAUAUUACGCUGG
4. GCCGAGCAAUAUUACGUGUC
5. CUGGAGCAAUAUUACGAAUA
6. GCUAAGCAAUAUUACGGUUU
7. UUGCAGCAAUAUUACGGGUG
8. GAAGAGCAAUAUUACGAGCC

Found:
[-0.748, -2.53, -2.41, -1.64, -2.15, -0.522, -1.59, -0.252]
